Numbers sourced from patent US8097637B2.

Listed here are compounds together with their documented Ki.
# tested on: human D2 dopamine receptor (Homo sapiens)
# Construct: membrane preparation
# Sequence (P14416 whole entry): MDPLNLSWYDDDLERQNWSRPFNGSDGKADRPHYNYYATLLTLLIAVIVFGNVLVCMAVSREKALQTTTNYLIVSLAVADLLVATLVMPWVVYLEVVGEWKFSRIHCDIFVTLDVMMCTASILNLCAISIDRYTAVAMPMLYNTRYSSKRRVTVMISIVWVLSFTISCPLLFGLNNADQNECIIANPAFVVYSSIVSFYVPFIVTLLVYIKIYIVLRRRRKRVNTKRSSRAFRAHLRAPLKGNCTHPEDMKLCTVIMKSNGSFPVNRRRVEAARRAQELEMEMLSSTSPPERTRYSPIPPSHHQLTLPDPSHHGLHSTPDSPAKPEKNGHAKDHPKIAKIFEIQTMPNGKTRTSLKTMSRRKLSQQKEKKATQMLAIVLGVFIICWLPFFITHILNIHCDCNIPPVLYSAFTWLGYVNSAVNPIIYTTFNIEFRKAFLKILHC
# test name: Radioligand binding ([3H]-spiperone) to cloned human D2 receptor, HEK-293 EBNA cell membranes
# protocol conditions: 0.7 nM [3H]-spiperone, 1 h at RT, Cheng-Prusoff
assay readout: Ki (µM)

1) O=C(CC1CC(CO)C1)N[C@H]1CC[C@H](CCN2CCC(C(=O)c3ccc(F)cc3)CC2)CC1 (mixture of isomers) = 1
2) CO[C@H]1CC[C@H](CC(=O)N[C@H]2CC[C@H](CCN3CCC(C(=O)c4ccc(F)cc4)CC3)CC2)CC1 = 1.28
3) O=C(CC1CCC2(CC1)OCCO2)N[C@H]1CC[C@H](CCN2CCC(C(=O)c3ccc(F)cc3)CC2)CC1 = 1.74
4) COC[C@H]1C[C@@H](CC(=O)N[C@H]2CC[C@H](CCN3CCC(C(=O)c4ccc(F)cc4)CC3)CC2)C1 = 2.03
5) CC1(O)CCC(CC(=O)N[C@H]2CC[C@H](CCN3CCC(C(=O)c4ccc(F)cc4)CC3)CC2)CC1 (mixture of isomers) = 1.36
6) COCC1CCC(CC(=O)N[C@H]2CC[C@H](CCN3CCC(C(=O)c4ccc(F)cc4)CC3)CC2)C1 (mixture of isomers) = 1.29
7) O=C(CC1CCC(O)CC1)N[C@H]1CC[C@H](CCN2CCC(C(=O)c3ccc(F)cc3)CC2)CC1 (mixture of isomers) = 1.49
8) COC1CCC(CCC(=O)N[C@H]2CC[C@H](CCN3CCC(C(=O)c4ccc(F)cc4)CC3)CC2)CC1 (mixture of isomers) = 1.41
9) COCC1CC(CC(=O)N[C@H]2CC[C@H](CCN3CCC(C(=O)c4ccc(F)cc4)CC3)CC2)C1 (mixture of isomers) = 1.36
10) O=C(CC1CCC(OC2CCOC2)CC1)N[C@H]1CC[C@H](CCN2CCC(C(=O)c3ccc(F)cc3)CC2)CC1 (mixture of isomers) = 2.61
11) CC(=O)N[C@H]1CC[C@H](CC(=O)N[C@H]2CC[C@H](CCN3CCC(C(=O)c4ccc(F)cc4)CC3)CC2)CC1 = 2.07
12) COC[C@H]1C[C@H](CC(=O)N[C@H]2CC[C@H](CCN3CCC(C(=O)c4ccc(F)cc4)CC3)CC2)C1 = 1.86
13) C[C@]1(O)CC[C@H](CC(=O)N[C@H]2CC[C@H](CCN3CCC(C(=O)c4ccc(F)cc4)CC3)CC2)CC1 (single isomer, unassigned) = 1.3
